# Test Description: Efflux ratio of apparent permeability across basolateral to apical side over apical to basolateral side in human Caco2 cells at 10 uM measured for 120 mins by LC-MS/MS analysis
# Measurement Conditions: Caco-2
Reported Metric: efflux ratio at 2 h, 10 µM

[
  {
    "Molecule": "CN(C)CCNCc1cc(-c2cc3c(N[C@H](CO)c4ccccc4)ncnc3[nH]2)ccc1F",
    "Reported Metric": "efflux ratio at 2 h, 10 µM",
    "Reported Measurement": 5.9
  }
]

---

This listing pairs compounds with measured pIC50.
# Test system: BaF3
# Test Description: Antiproliferative activity against mouse Ba/F3 cells expressing EGFR-L858R mutant assessed as inhibition of cell growth incubated for 48 hrs by XTT assay
# Assay type: functional, cell-based
# Measurement Conditions: BaF3, 48 h
pIC50: −log10 of the molar value.

[
  {
    "Molecule": "COc1ccccc1-c1cc2c(N[C@H](CO)c3ccccc3)ncnc2[nH]1",
    "pIC50": 6.87
  },
  {
    "Molecule": "COc1cc(CNCCN(C)C)ccc1-c1cc2c(N[C@H](C)c3ccccc3)ncnc2[nH]1",
    "pIC50": 7.05
  },
  {
    "Molecule": "COc1cc(CNCCN2CCNCC2)ccc1-c1cc2c(N[C@H](CO)c3ccccc3)ncnc2[nH]1",
    "pIC50": 6.40
  },
  {
    "Molecule": "OCc1ccc(-c2cc3c(N[C@H](CO)c4ccccc4)ncnc3[nH]2)cc1F",
    "pIC50": 6.80
  },
  {
    "Molecule": "C#Cc1cccc(Nc2ncnc3cc(OCCOC)c(OCCOC)cc23)c1",
    "pIC50": 7.06
  }
]

---

Listed here: items and their measured inhibition.
# Target Or Test System: Proto-oncogene tyrosine-protein kinase Src (Homo sapiens)
# Test Description: Inhibition of recombinant human His-tagged full length SRC expressed in baculovirus expression system at 500 nM using Tyr 02 as substrate incubated for 1 hr in presence of ATP at its Km concentration by Z'-LYTE assay relative to control

[
  {
    "Molecule": "CCOc1ccccc1-c1cc2c(N[C@H](CO)c3ccccc3)ncnc2[nH]1",
    "inhibition": "40%"
  },
  {
    "Molecule": "OCC[C@@H](Nc1ncnc2[nH]c(-c3ccccc3)cc12)c1ccccc1",
    "inhibition": "25%"
  },
  {
    "Molecule": "OC[C@@H](Nc1ncnc2[nH]c(-c3ccccc3)cc12)c1ccccc1",
    "inhibition": "59%"
  },
  {
    "Molecule": "COc1ccccc1-c1cc2c(N[C@H](CO)c3ccccc3)ncnc2[nH]1",
    "inhibition": "59%"
  },
  {
    "Molecule": "CN(C)CCNCc1ccc(-c2cc3c(N[C@H](CO)c4ccccc4)ncnc3[nH]2)cc1F",
    "inhibition": "76%"
  }
]

---

Measured IC50, listed per entry for reference.
# Test system: K562
# Test Description: Antiproliferative activity against human K562 cells assessed as inhibition of cell growth incubated for 72 hrs by Cell Titer Glo luminescent cell viability assay
# Format: functional, cell-based
# Measurement Conditions: K562, 72 h

[
  {
    "Compound": "C#Cc1cccc(Nc2ncnc3cc(OCCOC)c(OCCOC)cc23)c1 [ERLOTINIB]",
    "IC50": "55 µM"
  },
  {
    "Compound": "OC[C@@H](Nc1ncnc2[nH]c(-c3ccccc3)cc12)c1ccccc1",
    "IC50": "15 µM"
  }
]
